Target: KRas G12C mutant (Homo sapiens (Human), UniProt P01116, G12C)
Sequence (P01116-2 other isoform, or with tags, fused parts or gaps G12C): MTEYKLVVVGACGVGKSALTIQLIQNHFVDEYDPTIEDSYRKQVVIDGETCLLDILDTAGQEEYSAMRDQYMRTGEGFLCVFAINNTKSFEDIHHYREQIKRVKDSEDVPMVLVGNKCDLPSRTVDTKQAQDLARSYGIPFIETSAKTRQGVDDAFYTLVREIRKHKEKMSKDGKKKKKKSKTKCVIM
Assay: Ras GTP binding domain inhibition assay (labeled GTP)
Settings: 20 μM; read-out: KRas G12C % Inh.
Listed next: entries and their corresponding inhibition at 20 µM.

molecule	inhibition at 20 µM
O=c1nc(-c2ccccn2)[nH]c2scc(-c3ccccc3Cl)c12 [drawing 2585]	25 to 50%
OCCNc1nc(-c2ccccn2)nc2scc(-c3ccccc3)c12 [drawing 2603]	1 to 25%
COc1cccc(C(=O)Nc2nc(-c3ccccn3)cs2)c1 [drawing 2580]	51 to 75%
COc1ccc(C(=O)Nc2nc(-c3ccccn3)cs2)cn1 [drawing 2581]	51 to 75%
Cc1cc(C(=O)Nc2nc(-c3ccccn3)cs2)no1 [drawing 2568]	25 to 50%
O=C(Nc1nnc(-c2ccccn2)[nH]1)c1ccc2ccccc2n1 [drawing 2472]	25 to 50%
O=C(Nc1nc(-c2ccccn2)cs1)c1ccncc1 [drawing 2578]	51 to 75%
O=C(c1ccn(-c2ccccc2)n1)N1CCCc2c(O)nc(-c3ccccn3)nc21 [drawing 2644]	25 to 50%
COC(=O)c1cc(NCc2nc(CC(C)C)no2)ccc1Cl [drawing 2612]	25 to 50%
O=c1nc(-c2ccccn2)[nH]c2c1CCC2 [drawing 2591]	25 to 50%
COC(=O)c1cccc(CN2CCC(CSc3ccccc3)C2)c1C#N (stereo not shown) [drawing 2611]	25 to 50%
O=C(Nc1nnc(-c2ccccn2)[nH]1)c1ccn(-c2ccccc2)n1 [drawing 2464]	51 to 75%
COc1ccc(CCC(=O)Nc2nnc(-c3ccccn3)[nH]2)cc1 [drawing 2469]	25 to 50%

###

Listed next: entries and their corresponding inhibition at 30 µM.
Tested on: IL6 production in RAW 264.7 macrophage cell line
Test: Mouse IL6 quantification assay (LPS-stimulated macrophages, ELISA)
Assay type: cell-based
Conditions: RAW264.7, RAW 264.7 murine leukemia virus transformed macrophage cell lines, LPS stimulation, read-out: IL-6 % Inhibition at 30 μM

compound	inhibition at 30 µM
CON(C)c1nc(-c2ccccn2)nc2scc(-c3ccccc3)c12 [drawing 2147]	26 to 50%
Oc1nc(-c2ccccn2)nc2c(-c3ccnn3-c3ccccn3)csc12 [drawing 2296]	51 to 75%
CC(C)OCCNc1nc(-c2nccn2C)nc2sc(-c3ccccc3)c(-c3ccccc3)c12 [drawing 2394]	1 to 25%
Oc1nc(-c2ccccn2)nc2c(-c3cnc4ccccc4c3)csc12 [drawing 2300]	76 to 100%
Cc1sc2c(O)nc(-c3nccn3C)nc2c1-c1ccc(F)cc1F [drawing 2448]	51 to 75%
COc1cccc(CN2CCN(C(=O)c3csc4c(O)nc(-c5ccccn5)nc34)CC2)c1 [drawing 2188]	51 to 75%
Oc1nc(-c2ccccn2)nc2c(Br)c(-c3ccccc3)sc12 [drawing 2380]	1 to 25%
CN(C)Cc1ccc(-c2csc3c(O)nc(-c4ccccn4)nc23)cc1F [drawing 2238]	76 to 100%
Nc1nc(O)c2scc(-c3ccccc3Cl)c2n1 [drawing 2119]	26 to 50%
O=C(COc1ccccc1)Nc1nnc(-c2ccccn2)[nH]1 [drawing 1993]	1 to 25%

###

Listed next: entries and their corresponding inhibition at 20 µM.
Molecular target: KRas Q61H mutant (Homo sapiens (Human), UniProt P01116, Q61H)
Sequence (P01116-2 other isoform, or with tags, fused parts or gaps Q61H): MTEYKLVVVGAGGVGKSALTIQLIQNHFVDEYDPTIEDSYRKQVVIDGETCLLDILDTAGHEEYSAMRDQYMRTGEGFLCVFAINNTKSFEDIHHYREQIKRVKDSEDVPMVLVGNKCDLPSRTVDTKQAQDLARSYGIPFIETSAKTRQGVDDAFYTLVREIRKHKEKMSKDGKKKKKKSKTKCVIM
Experiment: Ras GTP binding domain inhibition assay (labeled GTP)
Conditions: 20 μM compound; KRas Q61H; read-out: % Inhibition at 20 μM of K-Ras mutant and wild-type protein, KRas Q61H

molecule	target	inhibition at 20 µM
COc1nc(-c2ccccn2)nc2c(C3CCCC3)csc12 [drawing 3470]	KRas Q61H mutant (Homo sapiens (Human), UniProt P01116, Q61H)	76 to 100%
COc1ccc(-c2cc3nc(-c4ccccn4)nc(O)c3s2)cc1 [drawing 3563]	KRas Q61H mutant (Homo sapiens (Human), UniProt P01116, Q61H)	1 to 25%
Oc1nc(-c2ccccn2)nc2c3c(sc12)CNC3 [drawing 3477]	KRas Q61H mutant (Homo sapiens (Human), UniProt P01116, Q61H)	76 to 100%

###

System: MIA-PACA2 pancreatic cancer cell lines
Assay: Cell proliferation assay (CellTiter 96 AQueous One)
Format: cell-based
Details: Homo sapiens, MIA PaCa-2; at 30 μM, MIA-PACA2
observationType: inhibition at 30 µM

compound	result
O=C(Nc1nc(-c2ccccn2)cs1)c1ccc(F)cc1 [drawing 1486]	76 to 100%
O=C(c1csc2c(O)nc(-c3ccccn3)nc12)N1CCN(Cc2ccc(O)cc2)CC1 [drawing 1657]	1 to 25%
COc1cc(CCN(C)C(=O)c2csc3nc(-c4ccccn4)nc(N4CCOCC4)c23)ccn1 [drawing 1674]	76 to 100%
NC(=O)c1ccc(OCC(=O)Nc2nnc(-c3ccccn3)[nH]2)cc1 [drawing 1450]	1 to 25%
CC(c1ccccc1)N1CCN(C(=O)c2csc3c(O)nc(-c4ccccn4)nc23)CC1 (centres unmarked) [drawing 1697]	76 to 100%
O=c1nc(-c2ccccn2)[nH]c2scc(-c3ccccc3Cl)c12 [drawing 1492]	76 to 100%
COc1cccc(C2CN(C(=O)c3csc4c(O)nc(-c5ccccn5)nc34)CCN2)c1 (centres unmarked) [drawing 1666]	76 to 100%
CC(Oc1ccc(C(=O)Nc2nnc(-c3ccccn3)[nH]2)cn1)c1ccccc1 (centres unmarked) [drawing 1425]	76 to 100%
COc1ccc(-c2csc3c(O)nc(-c4ccccn4)nc23)c(C)c1 [drawing 1757]	76 to 100%
O=C(CNc1nc(-c2ccccn2)nc2scc(-c3ccccc3)c12)NC1CC1 [drawing 1612]	76 to 100%
CNC(=O)c1sc2[nH]c(-c3ccccn3)nc(=O)c2c1C [drawing 1491]	51 to 75%
O=C(Nc1nc(-c2ccccn2)cs1)c1cccc(F)c1 [drawing 1474]	76 to 100%
Cc1nc(-c2ccccn2)sc1C(=O)Nc1nnc(-c2ccccn2)[nH]1 [drawing 1444]	76 to 100%
COc1cc(CNc2nc(-c3ccccn3)nc3scc(-c4ccccc4)c23)ccc1OCC(N)=O	76 to 100%
NC(=O)C1CCCN(c2nc(-c3ccccn3)nc3scc(-c4ccccc4)c23)C1 (centres unmarked) [drawing 1624]	76 to 100%
O=S(=O)(c1ccccc1)N1CCCc2c(O)nc(-c3ccccn3)nc21 [drawing 1553]	25 to 50%
N#Cc1ccc(CCNC(=O)c2csc3nc(-c4ccccn4)nc(N4CCOCC4)c23)cc1 [drawing 1644]	25 to 50%
COC(=O)c1csc2nc(-c3ccccn3)nc(N)c12 [drawing 1771]	76 to 100%
COC(=O)c1cc(NC(=O)CCc2c(C)nc(-c3ccccn3)nc2O)ccc1Cl [drawing 1506]	76 to 100%
CCCOc1ccc2ccccc2c1CN(C)S(=O)(=O)N1CC(C)OC(C)C1 (centres unmarked) [drawing 1531]	76 to 100%
Oc1nc(-c2ccccn2)nc2c(-c3cc(F)cc(F)c3)csc12 [drawing 1776]	76 to 100%
Oc1nc(-c2ccccn2)nc2c(-c3cc(C(F)(F)F)ccc3F)csc12 [drawing 1787]	76 to 100%
Nc1nc(O)c2scc(C(=O)N3CCC(N4CCCC4=O)CC3)c2n1 [drawing 1559]	25 to 50%

###

Molecular target: KRas G12D/Q61H double mutant (Homo sapiens (Human), UniProt P01116, G12D/Q61H)
Sequence (P01116-2 other isoform, or with tags, fused parts or gaps G12D/Q61H): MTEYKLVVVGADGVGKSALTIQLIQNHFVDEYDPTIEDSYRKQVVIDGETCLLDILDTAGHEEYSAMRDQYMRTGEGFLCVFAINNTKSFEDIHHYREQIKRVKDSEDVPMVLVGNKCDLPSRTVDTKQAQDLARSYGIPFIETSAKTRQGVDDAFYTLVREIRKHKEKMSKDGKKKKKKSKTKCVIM
Experiment: Ras GTP binding domain inhibition assay (labeled GTP)
Settings: at 20 μM; read-out: KRas G12D Q61H % Inh.

compound	inhibition at 20 µM
Oc1nc(-c2ccccn2)nc2c(-c3ccccn3)csc12 [drawing 3768]	1 to 25%
COc1nc(-c2ccccn2)nc2c(C3CCCC3)csc12 [drawing 3789]	51 to 75%
Nc1nc(-c2ccccn2)nc2c(-c3ccccc3Cl)csc12 [drawing 3707]	1 to 25%
COc1ncc(CCNC(=O)c2csc3nc(-c4ccccn4)nc(N4CCOCC4)c23)cn1 [drawing 3637]	1 to 25%
O=C(c1csc2c(O)nc(-c3ccccn3)nc12)N1CC2CC1CN2c1ccccc1 (stereo not shown) [drawing 3710]	76 to 100%
O=C(NCCc1cccnc1)c1cc2nc(-c3ccccn3)nc(O)c2s1 [drawing 3715]	25 to 50%
Cn1cnc(-c2nc(O)c3sc(-c4ccncc4)c(-c4ccccc4)c3n2)c1 [drawing 3867]	0%
COc1nc(-c2ccccn2)nc2c(C3CCC3)csc12 [drawing 3799]	51 to 75%
COc1nc(-c2ccccn2)nc2c1c(-c1ccccc1)nn2-c1ccccn1 [drawing 3858]	51 to 75%
Oc1nc(-c2ccccn2)nc(Oc2cccc(C(F)(F)F)c2)c1O [drawing 3876]	51 to 75%
Oc1nc(-c2ccccn2)nc2c(-c3cccc4c3OCO4)csc12 [drawing 3721]	51 to 75%
CC(C)(C)c1sc2c(O)nc(-c3ccccn3)nc2c1Br [drawing 3872]	25 to 50%
COc1nc(-c2ccccn2)nc2c(C3CC3)csc12 [drawing 3808]	1 to 25%
O=C(c1csc2c(O)nc(-c3ccccn3)nc12)N1CCOC(c2cccc(F)c2)C1 (stereo not shown) [drawing 3630]	25 to 50%
O=C(O)c1cc2nc(-c3ccccn3)nc(O)c2s1 [drawing 3722]	51 to 75%
Cc1sc2c(O)nc(-c3ccccn3)nc2c1-c1cccnc1 [drawing 3786]	25 to 50%
COc1nccc(CCNC(=O)c2csc3nc(-c4ccccn4)nc(N4CCOCC4)c23)n1 [drawing 3769]	1 to 25%
Oc1nc(-c2ccccn2)nc2cc(-c3ccccc3)sc12 [drawing 3880]	51 to 75%
Nc1nc(-c2ccccn2)nc2c(-c3ccccc3)csc12 [drawing 3731]	25 to 50%
Oc1nc(-c2ccccn2)nc2c(-c3cc(F)ccc3OC(F)F)csc12 [drawing 3732]	25 to 50%
Oc1nc(-c2ccccn2)nc2c(-c3ccc(OC4CCCCC4)cc3)csc12 [drawing 3759]	25 to 50%
COC(=O)c1sc2c(O)nc(-c3ccccn3)nc2c1C [drawing 3795]	25 to 50%
COc1ccnc(-c2nc(O)c3c(C(F)(F)F)csc3n2)c1 [drawing 3705]	25 to 50%
O=C(c1csc2c(O)nc(-c3ccccn3)nc12)N1CCN(Cc2ccc(O)c(Cl)c2)CC1 [drawing 3654]	25 to 50%
COC(=O)c1cc2nc(-c3ccccn3)nc(O)c2s1 [drawing 3779]	51 to 75%

# credit: patent US10940139B2
